B1: Pistol ribozyme (parent)
chain: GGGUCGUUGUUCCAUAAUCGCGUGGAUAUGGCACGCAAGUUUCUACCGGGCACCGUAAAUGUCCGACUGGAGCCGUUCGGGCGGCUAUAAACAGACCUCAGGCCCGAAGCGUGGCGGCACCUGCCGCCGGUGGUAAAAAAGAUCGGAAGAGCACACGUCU

- Variants of: B1
- EXPERIMENT: aptazyme ON/OFF ratio, guanine; higher = stronger switching; co-transcriptional cleavage with and without guanine
MEASUREMENT_TYPE: aptazyme ON/OFF ratio

## Task Supply aptazyme ON/OFF ratio value. Item: U7C G9A U10A U11C C12U
## Result 1.07

## Task Supply aptazyme ON/OFF ratio value. Item: U7A U8C G9C U11C C12U C13U
## Result 1.06

## Task Supply aptazyme ON/OFF ratio value. Item: U8A C12A
## Result 1.3

## Task Supply aptazyme ON/OFF ratio value. Item: U7A U8A G9C U10C U11G C12G C13A
## Result 1.1

## Task Supply aptazyme ON/OFF ratio value. Item: U7G U8A G9U U11G
## Result 1.17

## Task Supply aptazyme ON/OFF ratio value. Item: U7G U8C U10A U11C C12A C13G
## Result 1.23

## Task Supply aptazyme ON/OFF ratio value. Item: U8A U10A C12A C13U
## Result 1.18

## Task Supply aptazyme ON/OFF ratio value. Item: U8C G9U U10A U11A C12G C13G
## Result 1.16

## Task Supply aptazyme ON/OFF ratio value. Item: U7A U8G U10C U11C C12A
## Result 1.62

## Task Supply aptazyme ON/OFF ratio value. Item: U7C U8A G9C U10C C12G C13G
## Result 1.07

## Task Supply aptazyme ON/OFF ratio value. Item: U10A U11A C12A C13G
## Result 1.18
